targetOrTestSystem: TRα (Homo sapiens, UniProt P10827)
Construct: TR expression vector (full length TRα-CMV or TRβ-CMV)
Sequence (P10827 1-410 isoform P10827-2): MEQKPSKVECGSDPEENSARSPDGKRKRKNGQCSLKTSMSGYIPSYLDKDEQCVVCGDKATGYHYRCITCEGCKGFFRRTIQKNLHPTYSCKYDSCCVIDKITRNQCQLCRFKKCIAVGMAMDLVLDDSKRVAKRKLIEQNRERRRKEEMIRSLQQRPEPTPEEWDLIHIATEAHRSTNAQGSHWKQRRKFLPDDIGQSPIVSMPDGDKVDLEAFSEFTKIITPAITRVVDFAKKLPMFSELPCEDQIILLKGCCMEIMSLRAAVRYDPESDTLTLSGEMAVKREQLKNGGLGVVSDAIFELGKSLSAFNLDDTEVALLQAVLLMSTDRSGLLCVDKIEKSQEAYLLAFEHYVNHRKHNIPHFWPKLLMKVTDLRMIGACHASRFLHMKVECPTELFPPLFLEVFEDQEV
protocolSummary: Transactivation assay (DR4 TRE luciferase reporter, HEK 293), TRα
measurementParameters: HEK 293 transfected with full length TRα-CMV, 24 hours, firefly luciferase normalized to Renilla
observedProperty: EC50

querysmiles=[2H]C([2H])(c1ccc(O)c(C(C)C)c1)c1c(Cl)cc(OCC(=O)O)cc1Cl targetortestsystem="TRα (Homo sapiens, UniProt P10827)" reportedvalue="1 to 1000 nM"
querysmiles=[2H]C([2H])([2H])C([2H])(c1cc(Cc2c(Cl)cc(OCC(=O)O)cc2Cl)ccc1O)C([2H])([2H])[2H] targetortestsystem="TRα (Homo sapiens, UniProt P10827)" reportedvalue="1 to 1000 nM"
querysmiles=[2H]C([2H])(Oc1cc(Cl)c(Cc2ccc(O)c(C(C)C)c2)c(Cl)c1)C(=O)O targetortestsystem="TRα (Homo sapiens, UniProt P10827)" reportedvalue="1 to 1000 nM"
querysmiles=[2H]c1c(Cl)c(Cc2ccc(O)c(C(C)C)c2)c(Cl)c([2H])c1OCC(=O)O targetortestsystem="TRα (Homo sapiens, UniProt P10827)" reportedvalue="1 to 1000 nM"
